Cited source for all entries: ChEMBL document CHEMBL1949606

- EXPERIMENT: Inhibition of human recombinant carbonic anhydrase 7 C183S/C217S mutant hydrolysis activity using 4-nitrophenyl acetate as substrate preincubated for 10 mins prior to substrate addition by […]
QUANTITY NAME: pIC50
Formally, pIC50 is defined as -log10 of the concentration c, with c in mol/L.

[in] For CC(=O)Nc1nnc(S(N)(=O)=O)s1 [ACETAZOLAMIDE] , what is its reported pIC50?
[out] 6.77

====

- EXPERIMENT: Inhibition of human recombinant carbonic anhydrase 7 C183S/C217S mutant using carbon-dioxide as substrate preincubated for 10 mins prior to substrate addition by […]
QUANTITY NAME: pKi
By convention, pKi is the negative base-10 log of a molar concentration.

[in] Consider the compound shown here: CC(=O)Nc1nnc(S(N)(=O)=O)s1 [ACETAZOLAMIDE] What is its recorded pKi?
[out] 8.52
